Provenance of the data: paper PMC10819888

System: NCI-H460
Test description: NCI-60 one-dose assay
Type: cell-based
Condition info: Homo sapiens, NCI-H460 (Non-Small Cell Lung Cancer), read-out: Cell Inhibition Percent
For each of the compounds below, state its inhibition at 10 µM.
Numbers only here, please. The scale is %.

I am curious: what inhibition at 10 µM value has been reported for O=C(N/N=C/c1ccc(O)cc1)c1ccc2[nH]c(-c3ccc(Cl)cc3)nc2c1 [Compound 4i] ?
0

Now consider COc1ccc(C=NNC(=O)c2ccc3[nH]c(-c4ccc(Cl)cc4)nc3c2)cc1 [Compound 4g] .
94.1

Next up: O=C(NN=Cc1ccc(Cl)cc1)c1ccc2[nH]c(-c3ccc(Cl)cc3)nc2c1 [Compound 4e]
134

Please answer likewise for O=C(NN=Cc1ccccc1)c1ccc2[nH]c(-c3ccc(Cl)cc3)nc2c1 [Compound 4a]
0

Repeat for the following compound: O=C(NN=Cc1ccc([N+](=O)[O-])cc1)c1ccc2[nH]c(-c3ccc(Cl)cc3)nc2c1 [Compound 4c]
94.6

Queued: CCn1c(-c2ccc3[nH]c(-c4ccc(Cl)cc4)nc3c2)n[nH]c1=S [Compound 6]
0

Also check CN(C)c1ccc(C=NNC(=O)c2ccc3[nH]c(-c4ccc(Cl)cc4)nc3c2)cc1 [Compound 4b]
2.77

* * *

Please go through the items and note down their inhibition at 10 µM.
System: MCF7
Test description: NCI-60 one-dose assay
Assay type: cell-based
Condition info: Homo sapiens, MCF7 (Breast Cancer), read-out: Cell Inhibition Percent
Write the value in % as a bare number.

Recorded inhibition at 10 µM for CCn1c(-c2ccc3[nH]c(-c4ccc(Cl)cc4)nc3c2)n[nH]c1=S [Compound 6] , please?
14.6

Next compound: O=C(NN=Cc1ccc(Cl)cc1)c1ccc2[nH]c(-c3ccc(Cl)cc3)nc2c1 [Compound 4e]
120

Repeat with COc1ccc(C=NNC(=O)c2ccc3[nH]c(-c4ccc(Cl)cc4)nc3c2)cc1 [Compound 4g]
83.3

* * *

Test system: EKVX
Test description: NCI-60 one-dose assay
Type: cell-based
Condition info: Homo sapiens, EKVX (Non-Small Cell Lung Cancer), read-out: Cell Inhibition Percent
Experimental readout: inhibition at 10 µM (%)
Report as a plain number; the unit % is understood.

# input molecule: `O=C(N/N=C/c1ccc(O)cc1)c1ccc2[nH]c(-c3ccc(Cl)cc3)nc2c1` ; wanted: its inhibition at 10 µM
0

Then `O=C(NN=Cc1ccc(Cl)cc1)c1ccc2[nH]c(-c3ccc(Cl)cc3)nc2c1` ?
91.8

Request: `COc1ccc(C=NNC(=O)c2ccc3[nH]c(-c4ccc(Cl)cc4)nc3c2)cc1`
70.6

* * *

Tested on: OVCAR-5
Test description: NCI-60 one-dose assay
Type: cell-based
Condition info: Homo sapiens, OVCAR-5 (ovarian cancer), read-out: Cell Inhibition Percent
Experimental readout: inhibition at 10 µM (%)
Express the result in % but write the number alone.

Using the record for CCn1c(-c2ccc3[nH]c(-c4ccc(Cl)cc4)nc3c2)n[nH]c1=S [Compound 6] , report its inhibition at 10 µM.
0

Next up: O=C(NN=Cc1ccc(Cl)cc1)c1ccc2[nH]c(-c3ccc(Cl)cc3)nc2c1 [Compound 4e]
76.3

Entry COc1cc(/C=N/NC(=O)c2ccc3[nH]c(-c4ccc(Cl)cc4)nc3c2)cc(OC)c1OC [Compound 4h] please
0

How about this molecule: O=C(N/N=C/c1ccc(O)cc1)c1ccc2[nH]c(-c3ccc(Cl)cc3)nc2c1 [Compound 4i]
0
